system: PC-9 (KRAS wild type human lung adenocarcinoma cell line); experiment: KRAS 3D-Cell Proliferation Assay, PC-9 (Example 503); assay type: cell-based; settings: 168 h, PC-9 3D culture, 7 days, CellTiter-Glo 3D, read-out: Prolif PC9 3D ATP IC50
pIC50: −log10 of the molar value.
Catalogue of compounds with associated pIC50

Recorded results for 2 compounds are shown here.
>>> print(df.to_string())
                              smiles_record  endpoint_result
0  C#Cc1c(F)ccc2cc(O)cc(-c3nc4c5c(nc(OC[C@@]67CCCN6C[C@H](F)C7)nc5c3F)N3C[C@H]5CC[C@H](N5)[C@H]3CO4)c12           ≤ 4.70
1  C#Cc1c(F)ccc2cccc(-c3nc4c5c(ncnc5c3F)N3C[C@H]5CC[C@H](N5)[C@H]3[C@H](C)O4)c12           ≤ 4.70

Identify measured pIC50 associated with "C#Cc1cccc2cc(O)cc(-c3nc4c5c(nc(OC[C@@]67CCCN6C[C@H](F)C7)nc5c3F)N3C[C@H]5CC[C@H](N5)[C@H]3[C@H](C)O4)c12" ≤ 4.70

Origin of measurements: patent US12338256B2
